Measured values drawn from patent US20260028391A1 for this set.

For each entry below, report its pKd value.
- Assayed Target: T1, RSV-B F (RSV B)
- T1 construct: also called RSV F B
- Experiment Description: BLI
Scale: negative log10 of molar concentration, which is what pKd denotes.

# input binder: MPK201-v1.2 (antibody, V domains shown) VH: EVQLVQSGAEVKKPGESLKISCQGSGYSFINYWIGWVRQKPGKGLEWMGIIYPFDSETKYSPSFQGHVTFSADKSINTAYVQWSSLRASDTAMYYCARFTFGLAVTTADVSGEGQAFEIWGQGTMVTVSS VL: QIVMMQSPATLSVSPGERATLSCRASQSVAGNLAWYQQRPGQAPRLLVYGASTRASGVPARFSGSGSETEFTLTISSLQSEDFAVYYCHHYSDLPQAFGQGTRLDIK ; wanted: its pKd
9.79

What do you get for MPK65-v2-v3.1 (antibody, V domains shown) VH: QVPLVQSGAEVKKPGESLKISCKGSGYSFISYWIGWVRQMPGKGLEWMGVIYPFDADTKYSPSFQGHVTISADKSSNTAYVQWSSLKASDTAMYYCARFTFGIAVVTDDVSGEGQAFEIWGQGTMVTVSS VL: EIVMMQSPATLSVSPGERATLSCRASQSVAGNLAWYQQRPGQAPRLLIYGASTRATGVPARFSGSGSETEFTLTISSLQSEDFAVYYCHQYSNWPQAFGQGTRLDIK ?
9.19
